- target-or-system: Aldo-keto reductase family 1 member C2 (Homo sapiens) (UniProt P52895)
- Sequence (P52895 whole entry): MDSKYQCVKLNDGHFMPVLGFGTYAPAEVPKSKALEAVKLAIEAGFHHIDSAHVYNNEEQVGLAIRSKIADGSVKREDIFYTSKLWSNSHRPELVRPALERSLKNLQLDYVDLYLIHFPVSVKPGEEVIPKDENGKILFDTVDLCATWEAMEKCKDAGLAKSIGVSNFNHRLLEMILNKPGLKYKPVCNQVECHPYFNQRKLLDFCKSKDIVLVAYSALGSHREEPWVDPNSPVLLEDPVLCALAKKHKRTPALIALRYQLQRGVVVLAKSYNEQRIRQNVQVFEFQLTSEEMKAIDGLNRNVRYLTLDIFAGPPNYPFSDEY
- experiment-description: Inhibition of recombinant AKR1C2 using 1-acenaphthenol as substrate at 10 uM by spectrophotometry
Activity calls are given as the source filed them. The calls are words filed in the database; no cut-off is given here.
property: inhibition

INSERT INTO results (smi, target_or_system, result) VALUES
  ('O=C(Nc1ccc([N+](=O)[O-])cc1C(=O)O)c1cccc(O)c1', 'Aldo-keto reductase family 1 member C2 (Homo sapiens) (UniProt P52895)', '10.4%'),
  ('COc1cc(NC(=O)c2cccc([N+](=O)[O-])c2)c(C(=O)O)cc1OC', 'Aldo-keto reductase family 1 member C2 (Homo sapiens) (UniProt P52895)', 'inactive'),
  ('COc1cc(NC(=O)c2cccc(O)c2)c(C(=O)O)cc1OC', 'Aldo-keto reductase family 1 member C2 (Homo sapiens) (UniProt P52895)', '29.4%'),
  ('O=C(Nc1ccccc1C(=O)O)c1cccc(O)c1', 'Aldo-keto reductase family 1 member C2 (Homo sapiens) (UniProt P52895)', 'inactive'),
  ('Nc1cccc(C(=O)Nc2ccc(O)cc2C(=O)O)c1', 'Aldo-keto reductase family 1 member C2 (Homo sapiens) (UniProt P52895)', '28.7%'),
  ('Nc1cccc(C(=O)Nc2ccccc2C(=O)O)c1', 'Aldo-keto reductase family 1 member C2 (Homo sapiens) (UniProt P52895)', 'inactive'),
  ('COc1cc(NC(=O)c2cccc(N)c2)c(C(=O)O)cc1OC', 'Aldo-keto reductase family 1 member C2 (Homo sapiens) (UniProt P52895)', '20.2%'),
  ('O=C(Nc1ccc(Cl)cc1C(=O)O)c1cccc([N+](=O)[O-])c1', 'Aldo-keto reductase family 1 member C2 (Homo sapiens) (UniProt P52895)', '23.4%'),
  ('O=C(Nc1ccc(Br)cc1C(=O)O)c1cccc(O)c1', 'Aldo-keto reductase family 1 member C2 (Homo sapiens) (UniProt P52895)', '16.7%'),
  ('CCOc1cccc(C(=O)Nc2ccc(Br)cc2C(=O)O)c1', 'Aldo-keto reductase family 1 member C2 (Homo sapiens) (UniProt P52895)', '36.8%');

====

- target-or-system: Aldo-keto reductase family 1 member C3 (Homo sapiens, UniProt P42330)
- Sequence (P42330 whole entry): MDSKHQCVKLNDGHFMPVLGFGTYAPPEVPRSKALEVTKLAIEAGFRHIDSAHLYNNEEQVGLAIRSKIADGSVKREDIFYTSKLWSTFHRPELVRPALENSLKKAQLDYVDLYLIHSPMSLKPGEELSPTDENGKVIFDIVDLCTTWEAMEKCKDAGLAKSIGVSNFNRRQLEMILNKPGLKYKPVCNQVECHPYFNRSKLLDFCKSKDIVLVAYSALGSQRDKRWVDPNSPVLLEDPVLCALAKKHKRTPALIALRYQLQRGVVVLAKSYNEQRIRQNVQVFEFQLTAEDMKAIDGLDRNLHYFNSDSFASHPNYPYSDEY
- experiment-description: Inhibition of recombinant AKR1C3 using 1-acenaphthenol as substrate by spectrophotometry
property: IC50

INSERT INTO assay_data (smi, property, result) VALUES
  ('O=C(Nc1ccc(Cl)cc1C(=O)O)c1cccc(O)c1', 'IC50', '2200 nM'),
  ('CCCCOc1cc(C(=O)Nc2ccccc2C(=O)O)ccc1[N+](=O)[O-]', 'IC50', '7500 nM'),
  ('O=C(Nc1ccc([N+](=O)[O-])cc1C(=O)O)c1cccc(O)c1', 'IC50', '2600 nM');
